Where these numbers come from: PubChem BioAssay (NCATS)

protocol.description: S16 Schwann cell PMP22 intronic element firefly luciferase assay (AID 624032);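 also: plate controls were DMSO for no effect and PTC124 positive control mean for full effect; nearly all actives have a fitted effect of over 30% in size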
applied.conditions: S16 rat Schwann cells, PMP22 element FLuc, 24 h; series mostly up to 57.5 µM
Records with an inconclusive call do not appear. The source made the active and inactive calls. Calls follow the shape of the dose curve; as a rule, active = well fitted inhibition curve with a large enough effect; inconclusive = small, poorly fitted or top-dose-only effect; inactive = no such curve, though single readings can be large or run the other way.

compound	outcome
O=C(O)c1ccccc1-c1c2cc(Br)c(=O)c(Br)c-2oc2c(Br)c(O)c(Br)cc12	inactive
CCC(C)C1NC(=O)C(Cc2ccc(O)cc2)NC(=O)C(N)CSSCC(C(=O)N2CCCC2C(=O)NC(CC(C)C)C(=O)NCC(N)=O)NC(=O)C(CC(N)=O)NC(=O)C(CCC(N)=O)NC1=O (stereo not drawn)	inactive
CC(C)CC(NC(=O)C(COC(C)(C)C)NC(=O)C(Cc1ccc(O)cc1)NC(=O)C(CO)NC(=O)C(Cc1c[nH]c2ccccc12)NC(=O)C(Cc1cnc[nH]1)NC(=O)C1CCC(=O)N1)C(=O)NC(CCCN=C(N)N)C(=O)N1CCCC1C(=O)NNC(N)=O (stereo not drawn)	inactive

* * *

target.desc: Tumor susceptibility gene 101 protein (Homo sapiens)
protocol.description: qHTS Assay for Iinhibitors of HIV-1 Budding by Blocking the Interaction of PTAP/TSG101: Hit Validation (AID 651600); also: nearly all actives have a fitted effect of over 70% in size
applied.conditions: PTAP peptide/TSG101 UEV interaction, biochemical assay; series mostly up to 57.5 µM
Excerpt: Stages of the HIV-1 replication cycle, specifically virus assembly and release, provide underexploited targets for the development of novel antiviral inhibitors. The late stages of HIV-1 replication are mediated by the Gag precursor protein, Pr55Gag. […] A fluorescence anisotropy assay has been developed to quantitatively measure the PTAP-Tsg101 interaction which can be used to screen for inhibitors of this interaction. […]
Inconclusive results are not listed. Calls of active or inactive are those of the source. Calls follow the shape of the dose curve; as a rule, active = well fitted inhibition curve with a large enough effect; inconclusive = small, poorly fitted or top-dose-only effect; inactive = no such curve, though single readings can be large or run the other way.
Your answer must be one of the following: active, inactive

Some solved cases for reference:
>>> df
                                   molecule                               target_desc  group_label
0          CSc1nc(-c2cccs2)c(C#N)c(=O)[nH]1  Tumor susceptibility gene 101 protein (Homo sapiens)     inactive
1  COc1ccc(C2C(C(=O)c3cccs3)=C(O)C(=O)N2c2nnc(C)s2)cc1OC (stereo not given)  Tumor susceptibility gene 101 protein (Homo sapiens)       active
2  CC1CCCN(Cc2c(O)ccc3c2O/C(=C\c2ccco2)C3=O)C1 (stereo not given)  Tumor susceptibility gene 101 protein (Homo sapiens)       active
3  COc1ccc(-c2cc(C(F)(F)F)c3c(N)c(C(=O)NCCSC)sc3n2)cc1  Tumor susceptibility gene 101 protein (Homo sapiens)     inactive
4     CC(=O)Nc1ccc(N=Cc2c(O)ccc3ccccc23)cc1  Tumor susceptibility gene 101 protein (Homo sapiens)       active

Hi team, can someone confirm the assay call for CCCCCCCCOc1ccc(C2OC34CCCCC3C(C#N)(C#N)C2(C#N)C(=N)O4)cc1 (stereo not given) ?
inactive

Hi team, can someone confirm the assay call for N#CC(C(=O)NC1CC1)c1nc2ccccc2nc1N1CCCC1 (stereo not given) ?
inactive

Hi team, can someone confirm the assay call for `O=S(=O)(Nc1cccc(-c2ccc(N3CCCCCC3)nn2)c1)c1cccc(F)c1` ?
inactive

Hi team, can someone confirm the assay call for `Cc1ccc(NC(=S)Nc2ccc3nc(-c4ccccn4)c(-c4ccccn4)nc3c2)cc1C` ?
inactive

Hi team, can someone confirm the assay call for `Cc1cccc(NC(=S)NCCC(c2ccccc2)c2ccccc2)c1` ?
inactive

* * *

target.desc: 3',5'-cyclic-AMP phosphodiesterase 4B (Homo sapiens)
protocol.description: qHTS Assay for Inhibitors of PDE-IV (AID 607); also: % of control where 0% means no effect
applied.conditions: HEK293 ACTOne CNG channel cells, membrane potential fluorescence; series mostly up to 22.9 µM
Method: NIH Chemical Genomics Center [NCGC] NIH Molecular Libraries Screening Centers Network [MLSCN] […] Here we report the development of a cell-based screening assay for cAMP phosphodiesterase (PDE) inhibitors. […] The influx of cations through the CNG channel can be quantified using membrane potential (MP) dyes. […] The activity of the CNG channel was measured by BD ACTOneTM membrane potential dye kit (BD Biosciences). […]
Records with an inconclusive call do not appear. Activity calls are given as the source filed them. Calls come from the whole dose curve; as a rule, active = well fitted activation curve with a large enough effect in the main read-out, with a control signal flat (not every such curve was filed as active); inconclusive = small, poorly fitted or top-dose-only effect, or effect the other way, or a change in a side signal; inactive = flat fitted curve, though single readings scatter.
property.name: outcome

Worked examples, 5 compounds total:
compound	target.desc	property.name	observed.value
C[C@@H](C(=O)NCc1ccccc1)[C@H]1C[C@]1(C)[C@H](NC(=O)OCc1ccccc1)c1ccccc1	3',5'-cyclic-AMP phosphodiesterase 4B (Homo sapiens)	outcome	inactive
COC(=O)C1(CC(C)C)C=C2C(=C(C)C(=O)C2C)CN1 (centres undefined)	3',5'-cyclic-AMP phosphodiesterase 4B (Homo sapiens)	outcome	inactive
COC(=O)[C@@]1(Cc2ccc(F)cc2)[C@H]2c3cc(C(=O)N4CCCC4)n(CCc4c[nH]c5cc(F)ccc45)c3C[C@H]2CN1C(=O)c1ccccc1	3',5'-cyclic-AMP phosphodiesterase 4B (Homo sapiens)	outcome	inactive
COC(=O)[C@@]1(Cc2ccc(F)cc2)[C@H]2c3cc(C(=O)N4CCCC4)n(Cc4ccc(S(C)(=O)=O)cc4)c3C[C@H]2CN1C(=O)c1ccccc1	3',5'-cyclic-AMP phosphodiesterase 4B (Homo sapiens)	outcome	inactive
COC(=O)[C@@H]1C[C@H]1[C@@H](NS(=O)(=O)c1ccccc1)c1ccccc1	3',5'-cyclic-AMP phosphodiesterase 4B (Homo sapiens)	outcome	inactive

Looking up `COC(=O)[C@@]1(Cc2ccc(OC)cc2)[C@H]2c3cc(C(=O)N4CCCC4)n(CCN4CNCC4=O)c3C[C@H]2CN1C(=O)c1ccccc1` , I found its outcome recorded as inactive

Looking up `Cc1ccc(CNC(=O)[C@H](C)[C@@H]2C[C@@]2(C)[C@@H](NC(=O)OCc2ccccc2)c2ccccc2)c(F)c1F` , I found its outcome recorded as inactive

* * *

protocol.description: qHTS profiling for inhibitors of Plasmodium falciparum (3D7) proliferation (AID 743322);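 also: infected erythrocytes exposed to compound for 72 h before lysis; 100% = DMSO vehicle wells and 0% = 0.29 µM artemisinin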
applied.conditions: P. falciparum 3D7 proliferation; at 28.7 µM (top of the series)
property.name: remaining parasite growth % (stronger effect = lower value) (%)
Just the number in %, nothing appended.

Worked examples, 5 compounds total:
>>> print(df.to_string())
                                   compound  observed_value
0  O=C([C@@H](Cc1ccc(O[S+](=O)([O-])c2cccc3cccnc23)cc1)N[S+](=O)([O-])c1cccc2cccnc12)N1CCN(c2ccccc2)CC1           0.884
1          O=C1C(=O)c2ccccc2C(O)=C1C1CCCCC1             3.7
2  N[C@@H](Cc1ccc(OS(=O)(=O)c2ccccn2)cc1)C(=O)N1CCN(c2ccccc2)CC1            98.8
3  O=C([C@H](Cc1ccc(O[S+](=O)([O-])c2cccnc2)cc1)N[S+](=O)([O-])c1ccccn1)N1CCN(c2ccccc2)CC1            6.76
4      O=C1CCC(C2=C(O)c3ccccc3C(=O)C2=O)CC1            7.05

Looking up `CC(C)(C)OC(=O)N[C@@H](Cc1ccc(O[S+](=O)([O-])c2ccccn2)cc1)C(=O)N1CCN(c2ccccc2)CC1` , I found its remaining parasite growth % (stronger effect = lower value) recorded as 5.22

Looking up CCOc1ccc(F)cc1C1(O)C(N)=Nc2ccc(Cl)cc21 (stereo not drawn) , I found its remaining parasite growth % (stronger effect = lower value) recorded as 0.18

Looking up `Cc1nc2c(C#N)cccc2n1-c1ccc(C(=O)NC2CC2)s1` , I found its remaining parasite growth % (stronger effect = lower value) recorded as 0.492

* * *

target.desc: Cytochrome P450 2C9 (Homo sapiens) (UniProt P11712)
Sequence (P11712 whole entry, looked up): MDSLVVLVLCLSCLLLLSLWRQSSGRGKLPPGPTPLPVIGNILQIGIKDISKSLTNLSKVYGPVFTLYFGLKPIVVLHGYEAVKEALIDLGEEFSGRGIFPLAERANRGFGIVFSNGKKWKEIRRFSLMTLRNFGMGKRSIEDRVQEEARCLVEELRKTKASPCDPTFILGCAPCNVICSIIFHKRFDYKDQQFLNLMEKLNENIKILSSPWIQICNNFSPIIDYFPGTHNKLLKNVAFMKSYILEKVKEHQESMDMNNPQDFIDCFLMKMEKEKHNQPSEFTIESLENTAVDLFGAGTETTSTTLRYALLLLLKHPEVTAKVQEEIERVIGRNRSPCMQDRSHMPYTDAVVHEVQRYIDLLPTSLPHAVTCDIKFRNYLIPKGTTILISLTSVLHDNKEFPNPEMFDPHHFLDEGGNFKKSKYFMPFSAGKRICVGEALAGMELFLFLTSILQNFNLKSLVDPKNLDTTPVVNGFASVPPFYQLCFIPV
protocol.description: qHTS Assay for Inhibitors and Substrates of Cytochrome P450 2C9 (AID 883); also: nearly all actives have a fitted effect of over 60% in size
applied.conditions: recombinant CYP2C9, luciferin-H luminescence, 60 min; series mostly up to 11.4 µM
Protocol: NIH Molecular Libraries Screening Centers Network [MLSCN] NIH Chemical Genomics Center [NCGC] MLSCN Grant: None NCGC Assay Overview: The P450 gene superfamily is involved in the metabolism and clearance of xenobiotics. […] The luciferin is then measured by luminescence after the addition of a luciferase detection reagent. […] Inhibitors and some substrates limit the production of luciferin, and decrease measured luminescence. […]
Inconclusive results are not listed. Active and inactive are the calls of the source. Calls come from the whole dose curve; as a rule, active = well fitted inhibition curve with a large enough effect; inconclusive = small, poorly fitted or top-dose-only effect; inactive = no such curve, though single readings can be large or run the other way.
Your answer must be one of the following: active, inactive

Some solved cases for reference:
>>> df
                                   compound  group_label
0  OCC1OC(c2ccccc2)C=CC1Oc1ccc(C2CCCC2)cc1 (stereo not given)     inactive
1  COc1ccccc1/C=C/C1=CC2(C)CC1(C)C(c1ccccc1OC)CC2=O (stereo not given)       active
2  C=CCOC(=O)C(C(=O)CC)C(NC(=O)OC)c1ccc(F)cc1 (stereo not given)     inactive
3  CC(=O)OCC1OC(C#Cc2ccccc2)C=CC1OC(C)=O (stereo not given)     inactive

Hi team, can someone confirm the assay call for COC(c1ccccc1Br)C(C)/C=C/CCO (stereo not given) ?
inactive

Hi team, can someone confirm the assay call for C=CCC(O)CC1C2C(CC(O)CC=C)C3C1C3C2OC(C)(C)C (stereo not given) ?
inactive

Hi team, can someone confirm the assay call for `CN1CCc2nc(-c3ccccc3)c(-c3ccccc3)cc2C1` ?
inactive

Hi team, can someone confirm the assay call for CC1CCC2C(=O)N3C(CCC(C)C3c3ccc(-c4ccco4)cc3)C(=O)N2C1c1ccc(-c2ccco2)cc1 (stereo not given) ?
inactive

Hi team, can someone confirm the assay call for CCOC(=O)OCC1C=C[C@H](c2cc(-c3ccccc3)ccc2O)C(c2ccc(C(C)=O)cc2)O1 (stereo not given in full) ?
active

Hi team, can someone confirm the assay call for COc1cc(C2c3[nH]c4ccccc4c3CC3C(=O)N4C(Cc5c([nH]c6ccccc56)C4c4cc(OC)c(OC)c(OC)c4)C(=O)N32)cc(OC)c1OC (stereo not given) ?
inactive
